Test system: HL-60(TB) leukemia
Experiment: NCI tumour cell line growth inhibition, 48 h
Attribute: TGI
readout_kind: TGI (µM)

[[record]]
molecule = "COc1ccc2c(c1)[nH]c(=O)c1c3cccc(F)c3cn21"
lt_gt_eq = "="
experimental_value = 0.0515

[[record]]
molecule = "c1ccc2c3c([nH]c2c1)[C@H]1C2CCCCN2CN1CC3 (stereo partly specified)"
lt_gt_eq = ">"
experimental_value = 100

[[record]]
molecule = "CC(=O)[O-].Cn1ccnc1CNCc1nccn1C.[Cu+2].[O-][Cl+3]([O-])([O-])[O-]"
lt_gt_eq = ">"
experimental_value = 100

[[record]]
molecule = "O=[N+]([O-])C(/C=N/Nc1ccccc1)/C=N/Nc1ccccc1"
lt_gt_eq = ">"
experimental_value = 100

[[record]]
molecule = "Cc1cccc(C)c1NC(=O)C1=NC(=S)NC(c2ccccc2)C1c1nc2ccccc2s1 (stereo unspecified)"
lt_gt_eq = ">"
experimental_value = 100

[[record]]
molecule = "CC1CC[P+](c2ccccc2)(c2ccccc2)c2c1ccc1ccccc21 (stereo unspecified)"
lt_gt_eq = "="
experimental_value = 21.4

[[record]]
molecule = "COc1cc(/C=N/Nc2ncnc3c2cnn3-c2ccccc2)ccc1O"
lt_gt_eq = ">"
experimental_value = 25

[[record]]
molecule = "O=C(CCC=C(S(=O)(=O)c1ccccc1)S(=O)(=O)c1ccccc1)c1ccccc1"
lt_gt_eq = "="
experimental_value = 5.2

[[record]]
molecule = "CC1(C)CNc2cc(NC(=O)c3cccnc3NCc3ccncc3)ccc21"
lt_gt_eq = "="
experimental_value = 81.5

[[record]]
molecule = "Cn1c(CO)ccc1-c1ccc(-c2ccc[se]2)[se]1"
lt_gt_eq = ">"
experimental_value = 63.2

[[record]]
molecule = "C[N+](C)(C)CC(=O)N/N=C(/C(=O)Nc1ccc(Br)cc1)C1C(=O)NC(=O)NC1=O"
lt_gt_eq = ">"
experimental_value = 100

[[record]]
molecule = "COc1cc(OC)cc(-c2n/c(=C\\c3c(O)[nH]c4ccc(OC)cc34)cc3c2=Nc2ccccc2-3)c1"
lt_gt_eq = "="
experimental_value = 36.2

[[record]]
molecule = "Cc1ccc(/C=N/Nc2nc(Nc3ccccc3)nc(-n3nc(C)cc3C)n2)cc1"
lt_gt_eq = "="
experimental_value = 84.8

[[record]]
molecule = "c1ccc(C2OC3(CCC[C@H]4C[C@H]43)O[C@H]2c2ccccc2)cc1 (stereo partly specified)"
lt_gt_eq = "="
experimental_value = 41.1

[[record]]
molecule = "NC1=NS(=O)(=O)Nc2nc(-c3ccccc3)[nH]c21"
lt_gt_eq = ">"
experimental_value = 100

[[record]]
molecule = "CC1/C(=N\\O)CC(c2ccccc2)N(C)C1c1ccccc1 (stereo unspecified)"
lt_gt_eq = ">"
experimental_value = 100

[[record]]
molecule = "Cc1cc(S(=O)(=O)Nc2nc3ccccc3nc2-c2ccc(Cl)cc2)c(S)cc1Cl"
lt_gt_eq = "="
experimental_value = 44.1

[[record]]
molecule = "NC1=Nc2cc(Cl)ccc2Sc2nc3ccccc3n21"
lt_gt_eq = "="
experimental_value = 7.49

[[record]]
molecule = "OCCN(/N=C\\c1ccc2ccccc2c1)C1=NCCN1"
lt_gt_eq = "="
experimental_value = 43.6

[[record]]
molecule = "Cc1cccc2nc3ccccc3c(Nc3ccc(NS(C)(=O)=O)cc3)c12"
lt_gt_eq = "="
experimental_value = 5.53

[[record]]
molecule = "CC(C)=CCc1[nH]c2ccccc2c1C1=C(O)C(=O)C(c2c(CC=C(C)C)[nH]c3ccccc23)=C(O)C1=O"
lt_gt_eq = "="
experimental_value = 5.6


Cited source for all entries: PubChem BioAssay (NCI)
